Reported values of GI50 for individual entries
Test system: A549
Test: NCI tumour cell line growth inhibition, 48 h
Calls of active or inactive are those of the source. No stated cut-off is given here; in the data, active = GI50 up to about 1.1 µM and inactive = higher.

> print(dat)
                                   molecule  study.system  reported.measurement
1  COc1cccc(C23CCN(C)C(CC(O)C2)C3)c1OC (stereo not drawn)          A549   > 100 µM (inactive)
2  COC(=O)/C=C/[C@@H]1[C@H](C)N1S(=O)(=O)c1ccc(C)cc1 (stereo partly drawn)          A549   > 100 µM (inactive)

--- query ---
Data request: Record request: GI50 value, item C=C(C)C1CC/C(C)=C/CC[C@]2(C)O[C@H]2CC/C(COC(C)=O)=C\[C@@H]1O (stereo partly drawn)
Data returned: > 50 µM (inactive)

###

Tested on: SF-268
Test: NCI tumour cell line growth inhibition, 48 h
Activity calls are given as the source filed them. No stated cut-off is given here; in the data, active = GI50 up to about 1.1 µM and inactive = higher.
Measured Metric: GI50

> print(dat)
                                   compound  reported.measurement
1            O=CNc1cccc2c3c([nH]c12)CCCCCC3   > 100 µM (inactive)
2  COc1ccc2c(c1)CC[C@@H]1C2CC[C@]2(C)OC(=O)CCC12 (stereo partly specified)    12.1 µM (inactive)
3  NS(=O)(=O)c1ccc(NC(=O)N/N=C/c2ccccc2[N+](=O)[O-])cc1    56.6 µM (inactive)
4                     O=C1C=CC(=O)c2ncccc21    10.9 µM (inactive)

Data request: Record request: GI50 value, item "C/C(=N\Nc1ccc([N+](=O)[O-])cc1[N+](=O)[O-])c1sc(-n2nc(-c3ccccc3)cc2-c2ccccc2)nc1C"
Data returned: 44.2 µM (inactive)

Data request: Record request: GI50 value, item "O=C1c2cccc(NCCNCCO)c2C(=O)c2cccc(NCCNCCO)c21"
Data returned: 0.518 µM (active)

###

System: SN12C
Assay: NCI tumour cell line growth inhibition, 48 h
The source made the active and inactive calls. No stated cut-off is given here; in the data, active = GI50 up to about 1.1 µM and inactive = higher.
Pick from true = active, false = inactive when you respond.

> print(dat)
                                   compound  answer.label
1  COC(=O)/C=C/[C@@H]1[C@H](C)N1S(=O)(=O)c1ccc(C)cc1 (stereo not given in full)         false

Data request: Query: recorded result category for Cc1[nH]c2ccccc2c1C1Cc2ccccc2N1C(=O)/C=C/C(=O)O (stereo not given) in this test
Data returned: false

Data request: Query: recorded result category for "Cn1c(-c2ccccc2)cc(-c2cccs2)c1-c1cccs1" in this test
Data returned: false

Data request: Query: recorded result category for "ClC(Cl)[Si]12OCCN(CCO1)CCO2" in this test
Data returned: false

Data request: Query: recorded result category for "FC(F)(F)c1cccc(-c2nc3ccccc3c3c2[C@@]2(N4CCCC4)CCCC[C@@H]32)c1" in this test
Data returned: false

Data request: Query: recorded result category for "O=C(CSc1nnc(-c2ccc(/N=C\c3ccc(Cl)cc3)cc2)o1)Nc1cccc(Cl)c1" in this test
Data returned: false

Data request: Query: recorded result category for "O=C1c2cccc(NCCNCCO)c2C(=O)c2cccc(NCCNCCO)c21" in this test
Data returned: true

Data request: Query: recorded result category for "O=C1CCc2c3c(c4c([nH]c5ccccc54)c2CC1)C(=O)NC3=O" in this test
Data returned: false

Data request: Query: recorded result category for "Cc1ccc(NC(=S)N/N=C(/c2ccccc2)c2ccccn2)cc1" in this test
Data returned: true

Data request: Query: recorded result category for COc1cc(C)c(C2NC(=O)c3ccccc3N2)cc1C (stereo not given) in this test
Data returned: true

Reference for the values: ChEMBL document CHEMBL1201862
